These entries and their values trace back to patent US20160297763A1.

Listed below: Kd values for each entry.
Study System: PB2 cap binding domain (CBD) (Influenza A virus, UniProt Q9Q0V1)
Sequence (Q9Q0V1 318-483 limits assumed): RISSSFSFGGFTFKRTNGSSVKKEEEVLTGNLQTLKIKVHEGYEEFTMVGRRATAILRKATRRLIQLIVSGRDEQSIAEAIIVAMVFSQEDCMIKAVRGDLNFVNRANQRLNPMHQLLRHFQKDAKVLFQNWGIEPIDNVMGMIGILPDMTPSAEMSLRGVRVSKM
# value in µM; strip the unit string

Compound	Study System	Kd (µM)
Cc1c(-c2ccc(F)c(C(F)(F)F)c2)sc2nc(N)[nH]c(=O)c12 [SAV-7613]	PB2 cap binding domain (CBD) (Influenza A virus, UniProt Q9Q0V1)	1.5
Cc1c(-c2ccc(Cl)c(C#N)c2)sc2nc(N)[nH]c(=O)c12 [SAV-7602]	PB2 cap binding domain (CBD) (Influenza A virus, UniProt Q9Q0V1)	1.7
Cc1c(-c2cnccn2)sc2nc(N)[nH]c(=O)c12 [SAV-7608]	PB2 cap binding domain (CBD) (Influenza A virus, UniProt Q9Q0V1)	5.7
Cc1c(-c2ccc(Cl)cc2F)sc2nc(N)[nH]c(=O)c12 [SAV-7618]	PB2 cap binding domain (CBD) (Influenza A virus, UniProt Q9Q0V1)	0.65
Cc1c(-c2cnn(C)c2)sc2nc(N)[nH]c(=O)c12 [SAV-7603]	PB2 cap binding domain (CBD) (Influenza A virus, UniProt Q9Q0V1)	42

## Input Find Kd (PB2 cap binding domain (CBD) (Influenza A virus, UniProt Q9Q0V1)) for the entry Cc1c(-c2cccc(CN(C)C)c2)sc2nc(N)[nH]c(=O)c12 [SAV-7629]
## Output 61

## Input Short answer please: Kd, PB2 cap binding domain (CBD) (Influenza A virus, UniProt Q9Q0V1), entry Cc1c(-c2c(F)ccc(Cl)c2F)sc2nc(N)[nH]c(=O)c12 [SAV-7637]
## Output 1.1

## Input State its Kd on PB2 cap binding domain (CBD) (Influenza A virus, UniProt Q9Q0V1): Cc1c(-c2ccccc2)sc2nc(N)[nH]c(=O)c12 [SAV-7475]
## Output 4.6

## Input Param readout = Kd; param system = PB2 cap binding domain (CBD) (Influenza A virus, UniProt Q9Q0V1); param query = Cc1c(Cc2ccccc2)sc2nc(N)[nH]c(=O)c12 [SAV-7521] ; response: value
## Output 6

====

Tested on: influenza A virus A/Aichi/2/68 (H3N2)
Assay Procedure: Cytopathic effect (CPE) assay H3N2
Format: cell-based, influenza A virus (H3N2) on MDCK cells
Measurement Context: Influenza A virus, H3N2, activity conc 5 (μM per method); read-out: CPE H3N2 reduction (%)
Experimental: A possible measure of the […] antiviral activity of the compounds having the formula I or II is the CPE assay disclosed herein. […] In this connection, the reduction in the virus-mediated cytopathic effect (CPE) upon treatment with the compounds was calculated as follows: The cell viability of infected-treated and uninfected-treated cells was determined using an ATP-based cell viability assay (Promega). […]
Let's look at some compounds and their measured inhibition at 5 µM.
Give your result in % as a bare value.

Some entries whose results are on file:
Compound	Experimental Value
O=C(c1cc(N2CCCCC2)cc[n+]1[O-])N(O)Cc1ccccc1	-1.83
Cc1c(-c2cccc(C#N)c2)sc2nc(N)[nH]c(=O)c12	14.5
CC(C)(C)OC(=O)N1CCC=C(c2ccnc(C(=O)N(O)Cc3ccccc3)c2)C1 [drawing 256]	10.2
CNC(=O)c1cccc(-c2ccnc(C(=O)N(O)Cc3ccccc3)c2)c1	-7.5
O=C(c1ccc(N2CCCCC2)cn1)N(O)Cc1ccccc1 [drawing 208]	-3.4

## Input inhibition at 5 µM lookup needed for Cc1c(-c2ccccc2)sc2nc(NC3CCCCC3)[nH]c(=O)c12 , thanks.
## Output -3.2

## Input Report inhibition at 5 µM for O=C(c1cc(C2CCCCC2)ccn1)N(O)Cc1ccccc1 [drawing 258] please.
## Output -0.5

## Input Suppose we examine the compound CN(C)S(=O)(=O)c1cccc(-c2ccnc(C(=O)N(O)Cc3ccccc3)c2)c1 [drawing 233] ; what inhibition at 5 µM value has been reported?
## Output -1.8

## Input Recorded inhibition at 5 µM of Cc1c(-c2ccccc2)sc2nc(NCCN)[nH]c(=O)c12 , please.
## Output 2.2
